Assay: Compared bioavailability of aqueous nasal solution/aqueous subcutaneous solution (Example 9)
Assay type: in vivo, healthy volunteer subjects
Settings: human, serum, sc; mean s.c., 4 mg
quantity-kind: Tmax (min)

• NCCc1c[nH]c2ccc(OCC(=O)NC(Cc3ccc(O)cc3)C(=O)NCC(N)=O)cc12 (stereo not shown) [IS 159] = 30

----------
Assay: Compared bioavailability of aqueous nasal solution/aqueous subcutaneous solution (Example 9)
Type: in vivo, healthy volunteer subjects
Settings: human, serum; mean nasal, 4 mg, with Labrasol
quantity-kind: Tmax (min)

• NCCc1c[nH]c2ccc(OCC(=O)NC(Cc3ccc(O)cc3)C(=O)NCC(N)=O)cc12 (stereo not shown) = 15

----------
Experiment: Comparison between aqueous nasal solution and sublingual formulation (Example 8)
Format: in vivo, healthy volunteer subjects
Details: human, serum; nasal and sublingual with Labrasol, 10 mg; read-out: terminal half-life (converted)
quantity-kind: half-life

* NCCc1c[nH]c2ccc(OCC(=O)NC(Cc3ccc(O)cc3)C(=O)NCC(N)=O)cc12 (stereo not shown) [IS 159] | ~2.5 h

----------
Assay: Compared bioavailability of sublingual formulations without and with Labrasol (Example 7)
Assay type: in vivo, healthy volunteer subjects
Conditions: human, serum, 10 mg, sublingual tablet, with 2% Labrasol, read-out: apparent Tmax (converted)
quantity-kind: Tmax (min)

- NCCc1c[nH]c2ccc(OCC(=O)NC(Cc3ccc(O)cc3)C(=O)NCC(N)=O)cc12 (stereo not shown): 35

----------
Assay: Comparison between aqueous nasal solution and sublingual formulation (Example 8)
Assay type: in vivo, healthy volunteer subjects
Conditions: human, serum, 10 mg, nasal solution with Labrasol, read-out: AUC from time 0 to infinity
quantity-kind: AUC(0-inf) (ng·h/mL)

- NCCc1c[nH]c2ccc(OCC(=O)NC(Cc3ccc(O)cc3)C(=O)NCC(N)=O)cc12 (stereo not shown): 166

----------
Test: Compared bioavailability of aqueous nasal solution/aqueous subcutaneous solution (Example 9)
Assay type: in vivo, healthy volunteer subjects
Details: human, serum; mean nasal, 4 mg, with Labrasol; read-out: Terminal half-life (converted)
quantity-kind: half-life (h)

* NCCc1c[nH]c2ccc(OCC(=O)NC(Cc3ccc(O)cc3)C(=O)NCC(N)=O)cc12 (stereo not shown) [IS 159] | 2.5

----------
Assay: Compared bioavailability of sublingual formulations without and with Labrasol (Example 7)
Type: in vivo, healthy volunteer subjects
Settings: human, serum, 10 mg, sublingual tablet, control without Labrasol, read-out: apparent Tmax (converted)
quantity-kind: Tmax (min)

• NCCc1c[nH]c2ccc(OCC(=O)NC(Cc3ccc(O)cc3)C(=O)NCC(N)=O)cc12 (stereo not shown) = 45

----------
Experiment: Bioavailability test: serum IS 159 after nasal administration of the solution and control solution of example 1 (Example 4)
Format: in vivo, man
Details: human, serum, with Labrasol, read-out: apparent Tmax (converted)
quantity-kind: Tmax

• NCCc1c[nH]c2ccc(OCC(=O)NC(Cc3ccc(O)cc3)C(=O)NCC(N)=O)cc12 (stereo not shown) = 10 to 15 min

----------
Assay: Bioavailability test: serum IS 159 after nasal administration of the solution and control solution of example 1 (Example 4)
Type: in vivo, man
Conditions: human, serum, control solution without Labrasol, observation period 4 hours
quantity-kind: AUC at 4 h (ng·h/mL)

• NCCc1c[nH]c2ccc(OCC(=O)NC(Cc3ccc(O)cc3)C(=O)NCC(N)=O)cc12 (stereo not shown) [IS 159] = 12

----------
Test: Comparison between aqueous nasal solution and sublingual formulation (Example 8)
Type: in vivo, healthy volunteer subjects
Conditions: human, serum, 10 mg, sublingual tablet with 2% Labrasol, read-out: AUC from time 0 to infinity
quantity-kind: AUC(0-inf)

- NCCc1c[nH]c2ccc(OCC(=O)NC(Cc3ccc(O)cc3)C(=O)NCC(N)=O)cc12 (stereo not shown) [IS 159]: 12 ng·h/mL

----------
Test: Bioavailability test: serum IS 159 after nasal administration of the solution and control solution of example 1 (Example 4)
Format: in vivo, man
Conditions: human, serum, with Labrasol, observation period 4 hours
quantity-kind: AUC at 4 h (ng·h/mL)

• NCCc1c[nH]c2ccc(OCC(=O)NC(Cc3ccc(O)cc3)C(=O)NCC(N)=O)cc12 (stereo not shown) = 85
